Tested on: HOP-62
Experiment: NCI tumour cell line growth inhibition, 48 h
Activity calls are given as the source filed them. Rule as the data show it: active = GI50 up to about 1.1 µM and inactive = higher.
Labels: Y for active, N for inactive

{"COMPOUND": "CC(C)c1cc(CN(C)C)c(O)c(C(C)(C)C)c1", "CLASS ASSIGNMENT": "N"}
{"COMPOUND": "COc1cc([C@@H]2c3cc4c(cc3[C@@H](NCc3ccc(C#N)cc3)C3COC(=O)[C@@H]32)OCO4)cc(OC)c1O (some centres undefined)", "CLASS ASSIGNMENT": "Y"}
{"COMPOUND": "Cc1ccc(NC(=O)C(=O)C(C#N)c2nc(-c3ccc(-c4ccccc4)cc3)cs2)c(C)c1 (centres undefined)", "CLASS ASSIGNMENT": "N"}
{"COMPOUND": "CN(C)CCn1c(=O)c2ccc(NCCCN(C)CCCNc3ccc4c(=O)n(CCN(C)C)c(=O)n5c6ccc(O)cc6c(=O)c3c45)c3c(=O)c4cc(O)ccc4n(c1=O)c23", "CLASS ASSIGNMENT": "Y"}
{"COMPOUND": "CC(C)(C)c1nc2c(o1)/C(=N\\c1ccccc1)c1ccccc1C2=O", "CLASS ASSIGNMENT": "N"}
{"COMPOUND": "CC(=O)O[C@@]12[C@@H]3O[C@@]4(O)C[C@]5(C)[C@H]6C[C@@](C(C)C)(O[C@H]5c5ccoc5)O[C@H]1[C@]6(C4)O[C@]2(O)C(C)=CC3(C)C", "CLASS ASSIGNMENT": "N"}
{"COMPOUND": "CON(C)c1nc(N)c(C#N)c(C#N)c1C#N", "CLASS ASSIGNMENT": "N"}
{"COMPOUND": "O=C(NCCc1ccccc1)c1cc(/C=C/c2cc(O)ccc2O)ccc1O", "CLASS ASSIGNMENT": "N"}
{"COMPOUND": "C[C@@H](O)C(=O)N1[C@@H]2CC3CC[C@]2(CS1(=O)=O)C3(C)C", "CLASS ASSIGNMENT": "N"}
{"COMPOUND": "COc1cc(C(c2ccc3c(c2)OCO3)C2SCCCS2)cc(OC)c1OC (centres undefined)", "CLASS ASSIGNMENT": "N"}
{"COMPOUND": "O=C1c2cnccc2Cc2cccc3c2N1c1ccccc1S3", "CLASS ASSIGNMENT": "N"}
{"COMPOUND": "Cc1c(C)c(S(=O)(=O)N(CCCCCON)OCCCN)c(C)c2c1OC(C)(C)CC2", "CLASS ASSIGNMENT": "N"}
{"COMPOUND": "CN(C)CCNC(=O)c1ccc(NCCCN(C)CCCNc2ccc3c(=O)n(CCN(C)C)c(=O)n4c5ccccc5c(=O)c2c34)c2c(O)c3ccccc3nc12", "CLASS ASSIGNMENT": "Y"}
{"COMPOUND": "CCCCCCCCCc1cc(=O)c2ccc(O)cc2o1", "CLASS ASSIGNMENT": "N"}
{"COMPOUND": "Cc1ccc(NC(=O)CC(=O)N2N=C(N(CCC#N)c3cccc(C)c3)CC2c2ccccc2)cc1 (centres undefined)", "CLASS ASSIGNMENT": "N"}
{"COMPOUND": "CC(=O)C1C(=O)C(=O)N(c2ccccc2N2C(=O)C(=O)C(C(C)=O)C2=O)C1=O (centres undefined)", "CLASS ASSIGNMENT": "N"}
{"COMPOUND": "CC1=C(C(=O)Nc2ccc(C)cc2)C(c2cccc([N+](=O)[O-])c2)C(C(=O)Nc2ccc(C)cc2)=C(C)N1", "CLASS ASSIGNMENT": "N"}
{"COMPOUND": "N/N=C(\\N)Nc1cccc2ccccc12", "CLASS ASSIGNMENT": "N"}
{"COMPOUND": "CC(C)(C)c1cc(COc2c3sc(=S)sc3c(OCc3cc(C(C)(C)C)cc(C(C)(C)C)c3)c3sc(=S)sc23)cc(C(C)(C)C)c1", "CLASS ASSIGNMENT": "N"}

----------
System: SN12C
Assay: NCI tumour cell line growth inhibition, 48 h
Activity calls are given as the source filed them. Cut-off read from the data, not from the text of the source: active = GI50 up to about 1.1 µM and inactive = higher. Where a SMILES comes first, the peptide text is derived from it. The star is where a group is joined. Boc = CC(C)(C)OC(=O)*; OBn = c1ccc(CO*)cc1
Labels: active, inactive

{"COMPOUND": "O=C(NCP(=O)(c1ccccc1)c1ccccc1)OCc1ccccc1", "CLASS ASSIGNMENT": "inactive"}
{"COMPOUND": "Cc1cc2c(cc1CO)N1Cc3cc(C)c(CO)cc3N(C2)C1", "CLASS ASSIGNMENT": "inactive"}
{"COMPOUND": "CC(Oc1ccc(Cl)cc1Cl)C(=O)NN1C(=O)CC(=O)NC1=S (centres undefined)", "CLASS ASSIGNMENT": "inactive"}
{"COMPOUND": "COc1cc(C(=O)N2CCc3c([nH]c4c([N+](=O)[O-])c(OC)ccc34)C2C)cc(OC)c1OC (centres undefined)", "CLASS ASSIGNMENT": "inactive"}
{"COMPOUND": "O=C1c2cnccc2Cc2cccc3c2N1c1ccccc1S3", "CLASS ASSIGNMENT": "inactive"}
{"COMPOUND": "Nc1nc(SCCc2ccccc2)nc2nc3c(c(-c4ccccc4)c12)CCCC3", "CLASS ASSIGNMENT": "inactive"}
{"COMPOUND": "C=C1C(O)C2(O)OCC34C(CC5C(C)=CC(=O)C(O)C5(C)C23)OC(=O)C(OC(=O)C/C=C/CCCCCCCC)C14 (centres undefined)", "CLASS ASSIGNMENT": "active"}
{"COMPOUND": "O=C(CCl)Nc1ccc(C(=O)N/N=C/c2ccc(Cl)cc2)cc1", "CLASS ASSIGNMENT": "inactive"}
{"COMPOUND": "O=C1OC(c2ccccc2)=N/C1=C/C=C/c1ccco1", "CLASS ASSIGNMENT": "inactive"}
{"COMPOUND": "CC(C)OP(=O)(OC(C)C)/C(=N/Nc1ccc([N+](=O)[O-])cc1)NCCN/C(=N\\Nc1ccc([N+](=O)[O-])cc1)P(=O)(OC(C)C)OC(C)C", "CLASS ASSIGNMENT": "inactive"}
{"COMPOUND": "Cc1ccc(NC(=O)C(=O)C(C#N)c2nc(-c3ccc(-c4ccccc4)cc3)cs2)c(C)c1 (centres undefined)", "CLASS ASSIGNMENT": "inactive"}
{"COMPOUND": "CC(NC(=O)C(Cc1ccccc1)NC(=O)C(Cc1ccccc1)NC(=O)OC(C)(C)C)C(=O)OCc1ccccc1 (stereo not drawn) (Boc-Phe-Phe-Ala-OBn; configuration not given here)", "CLASS ASSIGNMENT": "inactive"}
{"COMPOUND": "Cc1ccc(S(=O)(=O)NC(=O)NC(CC(N)=O)C(=O)O)cc1 (centres undefined)", "CLASS ASSIGNMENT": "inactive"}
{"COMPOUND": "Cc1cn(CCCCOC(=O)NC(CCCNC(=N)N)C(=O)O)c(=O)[nH]c1=O (centres undefined)", "CLASS ASSIGNMENT": "inactive"}
{"COMPOUND": "Nc1ccccc1OCCCOc1ccccc1N", "CLASS ASSIGNMENT": "inactive"}
{"COMPOUND": "CC(=N\\N=C\\c1ccccn1)/C(C)=N/N=C(C)/C(C)=N/N=C/c1ccccn1", "CLASS ASSIGNMENT": "inactive"}
{"COMPOUND": "Cc1cc(O)c2c(c1)C(C1c3cccc(O)c3C(=O)c3c(O)cc(C)cc31)c1cccc(O)c1C2=O (centres undefined)", "CLASS ASSIGNMENT": "active"}
{"COMPOUND": "Cc1cc(=O)n2nc(SCc3ccccc3)sc2n1", "CLASS ASSIGNMENT": "inactive"}
{"COMPOUND": "CC(C)(C)c1ccc2c(c1)OP1(Oc3cccc4cccnc34)(O2)Oc2ccc(C(C)(C)C)cc2O1", "CLASS ASSIGNMENT": "inactive"}

----------
Test system: HCT-15
Where a SMILES comes first, the peptide text is derived from it.
Binarize GI50 at 20 µM; below is Criterion met, at or above is Criterion not met.

{"MOLECULE": "COc1ccc(NC(=O)C(=O)Cc2nc3ccc(C(=O)c4ccccc4)cc3nc2O)c([N+](=O)[O-])c1", "TESTED TARGET": "HCT-15", "CLASS ASSIGNMENT": "Criterion not met"}
{"MOLECULE": "Cc1nn(C)cc1P(=S)(c1ccccc1)c1ccccc1", "TESTED TARGET": "HCT-15", "CLASS ASSIGNMENT": "Criterion not met"}
{"MOLECULE": "C=CCC1(O)c2cccc(O)c2C(=O)c2c(O)cccc21", "TESTED TARGET": "HCT-15", "CLASS ASSIGNMENT": "Criterion met"}
{"MOLECULE": "Cc1ccc(Nc2nc(C)c(C(/C=C/c3ccc(/C=C/C(=N/NC(=O)C[n+]4ccccc4)c4sc(Nc5ccc(C)cc5[N+](=O)[O-])nc4C)cc3)=N\\NC(=O)C[n+]3ccccc3)s2)c([N+](=O)[O-])c1", "TESTED TARGET": "HCT-15", "CLASS ASSIGNMENT": "Criterion not met"}
{"MOLECULE": "COC(=O)C(=O)C1CCCCC(C2=NC3NN=C(N)N3C2=O)C1=O (stereo unspecified)", "TESTED TARGET": "HCT-15", "CLASS ASSIGNMENT": "Criterion not met"}
{"MOLECULE": "CC(C)(C)c1nc2c(o1)/C(=N\\c1ccccc1)c1ccccc1C2=O", "TESTED TARGET": "HCT-15", "CLASS ASSIGNMENT": "Criterion met"}
{"MOLECULE": "CC(=O)NC(CS)C(=O)NC(CO)C(=O)NC(CO)C(=O)NC(Cc1c[nH]c2ccccc12)C(=O)N1CCCC1C(=O)NC(CO)C(=O)NC(Cc1c[nH]c2ccccc12)C(=O)NC(Cc1c[nH]cn1)C(=O)NC(CO)C(=O)NC(Cc1c[nH]c2ccccc12)C(=O)NCC(=O)NCC(=O)NC(CC(=O)O)C(=O)NC(CCC(N)=O)C(=O)NC(CCCCN)C(=O)NC(Cc1ccccc1)C(=O)NC(CCCNC(=N)N)C(=O)NC(CCCCN)C(N)=O (stereo unspecified) (Ac-CSSWPSWHSWGGDQKFRK-NH2; configuration not given here)", "TESTED TARGET": "HCT-15", "CLASS ASSIGNMENT": "Criterion not met"}
{"MOLECULE": "COC(=O)C(Cc1ccccc1)OC(=O)C(N)CC(=O)O (stereo unspecified)", "TESTED TARGET": "HCT-15", "CLASS ASSIGNMENT": "Criterion not met"}
{"MOLECULE": "Cc1ccc(S(=O)(=O)NC(=O)NC(CC(N)=O)C(=O)O)cc1 (stereo unspecified)", "TESTED TARGET": "HCT-15", "CLASS ASSIGNMENT": "Criterion not met"}
{"MOLECULE": "N#CC1(c2nc3ccccc3o2)C(=O)C(=O)N(c2ccc(Cl)c(Cl)c2)C(=O)C1=O", "TESTED TARGET": "HCT-15", "CLASS ASSIGNMENT": "Criterion not met"}
{"MOLECULE": "N/N=C(\\N)Nc1cccc2ccccc12", "TESTED TARGET": "HCT-15", "CLASS ASSIGNMENT": "Criterion not met"}
{"MOLECULE": "CCOCc1cc(=O)c2cc3c(cc2o1)OC(C)(C)CC3", "TESTED TARGET": "HCT-15", "CLASS ASSIGNMENT": "Criterion not met"}
{"MOLECULE": "O=C1NC(=S)NC(=O)C1C(c1ccc(O)cc1)C1C(=O)NC(=S)NC1=O.c1ccncc1", "TESTED TARGET": "HCT-15", "CLASS ASSIGNMENT": "Criterion not met"}
{"MOLECULE": "COC12CCC(=O)C=C1c1ccccc1N2C(C)=O (stereo unspecified)", "TESTED TARGET": "HCT-15", "CLASS ASSIGNMENT": "Criterion not met"}
{"MOLECULE": "Cc1cc(C)nc(NC(P(=O)(O)O)P(=O)(O)O)n1", "TESTED TARGET": "HCT-15", "CLASS ASSIGNMENT": "Criterion not met"}
{"MOLECULE": "S=C(N/N=C(/c1ccccc1)c1ccccn1)Nc1ccc(Cl)cc1", "TESTED TARGET": "HCT-15", "CLASS ASSIGNMENT": "Criterion met"}
{"MOLECULE": "COc1ccc(Oc2cnn(C(Br)(Br)C(C)=O)c(=O)c2Br)cc1", "TESTED TARGET": "HCT-15", "CLASS ASSIGNMENT": "Criterion met"}
{"MOLECULE": "O=C(NCP(=O)(c1ccccc1)c1ccccc1)OCc1ccccc1", "TESTED TARGET": "HCT-15", "CLASS ASSIGNMENT": "Criterion not met"}
{"MOLECULE": "CC(C)OC(=O)c1ccc(CCc2cc(O)c(Br)cc2O)cc1", "TESTED TARGET": "HCT-15", "CLASS ASSIGNMENT": "Criterion met"}
{"MOLECULE": "c1ccc2c(-c3ccnc(-c4c[nH]c5ccccc45)n3)c[nH]c2c1", "TESTED TARGET": "HCT-15", "CLASS ASSIGNMENT": "Criterion met"}
